Target: Serine/threonine-protein kinase Chk1 (Homo sapiens, UniProt O14757)
Sequence (O14757 whole entry): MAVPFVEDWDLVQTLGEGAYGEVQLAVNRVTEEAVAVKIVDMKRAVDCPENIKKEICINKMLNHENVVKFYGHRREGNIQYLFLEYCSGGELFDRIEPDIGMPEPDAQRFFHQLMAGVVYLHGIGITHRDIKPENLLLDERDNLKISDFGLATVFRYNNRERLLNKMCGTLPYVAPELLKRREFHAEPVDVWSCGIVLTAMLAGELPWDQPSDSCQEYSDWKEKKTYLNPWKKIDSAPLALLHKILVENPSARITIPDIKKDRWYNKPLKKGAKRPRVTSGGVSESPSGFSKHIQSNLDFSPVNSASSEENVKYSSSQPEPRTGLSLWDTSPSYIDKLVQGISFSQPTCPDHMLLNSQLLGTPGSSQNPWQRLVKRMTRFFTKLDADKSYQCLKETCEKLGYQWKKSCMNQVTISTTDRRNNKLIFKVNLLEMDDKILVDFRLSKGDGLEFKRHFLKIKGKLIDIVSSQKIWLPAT
Assay: Inhibition of human recombinant Chk1 using biotinylated AKT substrate after 30 mins by Alphascreen biochemical assay
Property label: pIC50
To interpret pIC50, take it as minus log10 of a concentration measured in moles per litre.

Param item = N#Cc1cc2c(cn1)[nH]c1ncc(-c3ccc(CN4CCOCC4)cc3)cc12 ; retrieve measured pIC50.
7.86

Also OCc1cc2c(cn1)[nH]c1ncc(-c3ccc(CN4CCCCC4)cc3)cc12 ?
7.74

Next molecule: Cn1ccc(-c2cnc3[nH]c4cnc(C#N)cc4c3c2)n1
7.47

Now the molecule N#Cc1cc2c(cn1)[nH]c1ncccc12
6.38

Now this one: N#Cc1cc2c(cn1)[nH]c1ncc(-c3cccnc3)cc12
7.12

Check N#Cc1cc2c(cn1)[nH]c1ncc(-c3ccc(CN4CCC[C@@H](O)C4)cc3)cc12 too.
8.72

# iterate: CC(C)(c1ccc(-c2cnc3[nH]c4cnc(C#N)cc4c3c2)cc1)N1CCCCC1
7.99

Request: N#Cc1cc2c(cn1)[nH]c1ncc(-c3ccccn3)cc12
6.90

Same thing, different molecule: c1cc(-c2cc3c(cn2)[nH]c2ncc(-c4ccc(CN5CCCCC5)cc4)cc23)cnn1
8.54

Another: c1cnc(-c2cc3c(cn2)[nH]c2ncc(-c4ccc(CN5CCCCC5)cc4)cc23)cn1
8.64
